For each of the compounds below, state its Bliss excess.
# System: EVSA-T (Breast Carcinoma);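 also: after 72 h of two-drug dosing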
# ASSAY_COMMENT: Bliss excess, mean over the matrix (fraction); higher = more synergy

Check out these entries, answers already filled in.
| COMPOUND | STUDY_SYSTEM | Bliss excess |
| --- | --- | --- |
| Cc1c2c(nn1C)CSCc1cc(n(C)n1)CSc1cc(c3ccccc3c1)OCCCc1c(C(=O)O)n(C)c3c-2c(Cl)ccc13 [AZD5991] + CN(C)CCCOc1ccc(-c2ccc3ncc4c(c3c2)n(C2CCOCC2)c(=O)n4C)cn1 [AZD0156] (first compound max 1 µM, 7x7, partner max 1 µM) | EVSA-T (Breast Carcinoma) | -0.0304 |
| CC1(C)CCC(CN2CCN(c3ccc(C(=O)NS(=O)(=O)c4ccc(NCC5CCOCC5)c([N+](=O)[O-])c4)c(Oc4cnc5[nH]ccc5c4)c3)CC2)=C(c2ccc(Cl)cc2)C1 [Venetoclax] + C[C@@H]1COCCN1C2=NC(=NC(=C2)C3(CC3)[S@](=N)(=O)C)C4=C5C=CNC5=NC=C4 [AZD6738] (first compound max 1 µM, 7x7, partner max 10 µM) | EVSA-T (Breast Carcinoma) | 0.0144 |

Attention now shifts to the item below.
Ask: Answer with the recorded Bliss excess of C=CCn1c(=O)c2cnc(Nc3ccc(N4CCN(C)CC4)cc3)nc2n1-c1cccc(C(C)(C)O)n1 [AZD1775] + C1CN(CCC1(C(=O)N[C@@H](CCO)C2=CC=C(C=C2)Cl)N)C3=NC=NC4=C3C=CN4 [Capivasertib] (first compound max 3 µM, partner max 3 µM) only.
Reply: 0.129
